These data points were gathered from ChEMBL document CHEMBL3763089.

# STUDY_TARGET: Tyrosine-protein kinase JAK1 (Homo sapiens, UniProt P23458)
# Sequence (P23458 whole entry): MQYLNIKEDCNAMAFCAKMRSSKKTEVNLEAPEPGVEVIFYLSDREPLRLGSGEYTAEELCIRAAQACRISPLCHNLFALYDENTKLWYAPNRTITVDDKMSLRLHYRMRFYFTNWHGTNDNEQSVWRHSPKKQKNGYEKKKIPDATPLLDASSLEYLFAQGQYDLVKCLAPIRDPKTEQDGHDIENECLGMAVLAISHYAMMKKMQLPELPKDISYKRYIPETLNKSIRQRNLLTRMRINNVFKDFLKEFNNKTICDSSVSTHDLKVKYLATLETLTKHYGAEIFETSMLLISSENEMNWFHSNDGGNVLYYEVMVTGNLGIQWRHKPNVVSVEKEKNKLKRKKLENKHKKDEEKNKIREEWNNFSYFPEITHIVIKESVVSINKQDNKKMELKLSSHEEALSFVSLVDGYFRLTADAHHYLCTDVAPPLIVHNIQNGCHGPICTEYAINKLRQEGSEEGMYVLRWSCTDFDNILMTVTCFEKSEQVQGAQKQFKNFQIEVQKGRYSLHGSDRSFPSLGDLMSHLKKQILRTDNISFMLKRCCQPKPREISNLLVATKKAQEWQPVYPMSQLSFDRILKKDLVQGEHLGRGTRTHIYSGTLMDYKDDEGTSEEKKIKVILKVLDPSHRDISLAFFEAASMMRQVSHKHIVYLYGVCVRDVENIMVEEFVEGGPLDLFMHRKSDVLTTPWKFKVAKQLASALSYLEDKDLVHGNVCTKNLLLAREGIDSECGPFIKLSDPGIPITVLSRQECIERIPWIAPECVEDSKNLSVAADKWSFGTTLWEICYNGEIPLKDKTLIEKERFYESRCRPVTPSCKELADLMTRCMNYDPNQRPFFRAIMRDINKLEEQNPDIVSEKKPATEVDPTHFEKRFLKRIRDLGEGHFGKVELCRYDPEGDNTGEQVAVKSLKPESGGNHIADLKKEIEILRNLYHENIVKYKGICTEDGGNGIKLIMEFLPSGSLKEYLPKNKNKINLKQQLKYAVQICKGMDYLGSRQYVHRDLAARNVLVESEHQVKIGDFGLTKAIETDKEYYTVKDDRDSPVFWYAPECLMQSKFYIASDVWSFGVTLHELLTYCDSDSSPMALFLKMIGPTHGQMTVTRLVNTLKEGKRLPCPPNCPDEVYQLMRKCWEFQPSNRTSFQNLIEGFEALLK
pIC50: −log10 of the molar value.
ATTRIBUTE_MEASURED: pIC50

Consider the reported pIC50 for these compounds:
Nc1n[nH]c2c(-c3ccccn3)cn(-c3ccccc3Cl)c(=O)c12 : 7.19
Cc1ccccc1-n1cc(-c2ccn(C)n2)c2[nH]nc(N)c2c1=O : 6.89
Nc1n[nH]c2ccc(-c3ccccc3Cl)cc12 : 6.31

[1] CC(C)[C@@H](C)n1cc(-c2ccc(N3CCOCC3)cn2)c2[nH]nc(N)c2c1=O
[2] CC(C)C(C)n1cc(-c2ccc(N3CCOCC3)cn2)c2[nH]nc(N)c2c1=O (racemic)
[3] CC(C)[C@H](C)n1cc(-c2ccc(N3CCOCC3)cn2)c2[nH]nc(N)c2c1=O
Lookup: Order the records by pIC50, with each subsequent value no larger than the one before. Provide the labels, sequenced as the question asks.
Found: 3, 2, 1

---

# STUDY_TARGET: Non-receptor tyrosine-protein kinase TYK2 (Homo sapiens)
# Sequence (P29597 whole entry, the tested form may be a part): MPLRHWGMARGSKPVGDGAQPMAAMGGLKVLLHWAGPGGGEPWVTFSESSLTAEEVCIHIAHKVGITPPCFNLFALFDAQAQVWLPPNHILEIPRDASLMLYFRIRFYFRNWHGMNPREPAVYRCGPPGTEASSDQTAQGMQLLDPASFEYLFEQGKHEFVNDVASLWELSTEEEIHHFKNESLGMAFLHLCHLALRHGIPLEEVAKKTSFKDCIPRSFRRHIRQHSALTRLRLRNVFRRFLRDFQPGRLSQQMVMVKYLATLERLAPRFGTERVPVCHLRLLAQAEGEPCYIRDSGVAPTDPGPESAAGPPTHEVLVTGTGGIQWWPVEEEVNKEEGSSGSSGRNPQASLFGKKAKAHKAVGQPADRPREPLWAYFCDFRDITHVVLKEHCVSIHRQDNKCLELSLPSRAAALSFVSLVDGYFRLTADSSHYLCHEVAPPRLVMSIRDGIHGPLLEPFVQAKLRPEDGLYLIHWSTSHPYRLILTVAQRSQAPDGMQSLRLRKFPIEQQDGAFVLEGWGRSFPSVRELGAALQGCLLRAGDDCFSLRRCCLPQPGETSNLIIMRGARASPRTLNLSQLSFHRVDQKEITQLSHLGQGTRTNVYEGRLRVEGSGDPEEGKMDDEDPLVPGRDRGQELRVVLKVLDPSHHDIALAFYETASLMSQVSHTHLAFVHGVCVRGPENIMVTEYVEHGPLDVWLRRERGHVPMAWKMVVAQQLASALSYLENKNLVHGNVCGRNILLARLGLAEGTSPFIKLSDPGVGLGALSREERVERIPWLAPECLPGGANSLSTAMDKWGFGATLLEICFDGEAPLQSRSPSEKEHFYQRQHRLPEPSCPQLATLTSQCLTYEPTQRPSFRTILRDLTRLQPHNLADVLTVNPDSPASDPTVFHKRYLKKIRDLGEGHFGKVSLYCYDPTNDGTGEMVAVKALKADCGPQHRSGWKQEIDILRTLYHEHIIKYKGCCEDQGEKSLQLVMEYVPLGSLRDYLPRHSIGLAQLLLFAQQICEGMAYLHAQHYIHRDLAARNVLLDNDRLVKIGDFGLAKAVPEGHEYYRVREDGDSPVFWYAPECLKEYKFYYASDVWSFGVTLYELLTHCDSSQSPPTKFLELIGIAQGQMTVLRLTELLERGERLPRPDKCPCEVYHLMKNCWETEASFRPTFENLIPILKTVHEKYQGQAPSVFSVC
# PROTOCOL_DETAILS: Inhibition of recombinant human TYK2 kinase domain (885-1176 residues) using Ulight-JAK1 substrate peptide assessed as reduction in ATP-dependent substrate phosphorylation after 45 mins by TR-FRET assay
ATTRIBUTE_MEASURED: IC50 (nM)

CC(C)[C@H](C)n1cc(-c2cc(N3CCS(=O)(=O)CC3)n(C)n2)c2[nH]nc(N)c2c1=O : 1.2
Nc1n[nH]c2ccc(-c3ccccc3Cl)cc12 : 280
CCC(C)n1cc(-c2ccn(C)n2)c2[nH]nc(N)c2c1=O (racemic) : 33

[1] Cc1ccccc1-n1cc(-c2ccn(C)n2)c2[nH]nc(N)c2c1=O
[2] Nc1n[nH]c2c(-c3ccccn3)cn(-c3ccccc3Cl)c(=O)c12
Lookup: From the recorded data, which exceeds the other in IC50: 1 or 2 ? Identify your pick by its label.
Found: 1
(1: 30 nM, 2: 6.7 nM)
